B1: OR10K2 (parent)
chain: SLARLQQLLFVIFLLLYLFTLGTN

Variants of: B1
Assay: protein stability index of a GFP-peptide fusion (GPS, HEK-293T) (PSI 1-6); higher = more stable;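 note: lentivirally expressed fusions sorted by FACS into six bins by GFP to DsRed ratio, PSI derived from sequencing read proportions per bin multiplied by bin number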
Details: c terminus: a fixed tail appended
Would you mind labelling by protein stability index? At or over 3 is YES, under is NO.

Inquiry: Exam item: decide whether the reported protein stability index for SCARLQQLLFVIFLLLYLFTLGTN [L2C] is at least 3.
Reply text: NO

Inquiry: Exam item: decide whether the reported protein stability index for SLARLQQVLFVIFLLLYLFTLGTN [L8V] is at least 3.
Reply text: NO

Inquiry: Exam item: decide whether the reported protein stability index for SLARLQQLLFVHFLLLYLFTLGTN [I12H] is at least 3.
Reply text: NO

Inquiry: Exam item: decide whether the reported protein stability index for SLARLQNLLFVIFLLLYLFTLGTN [Q7N] is at least 3.
Reply text: YES

Inquiry: Exam item: decide whether the reported protein stability index for SLARLQQLLFVKFLLLYLFTLGTN [I12K] is at least 3.
Reply text: YES

Inquiry: Exam item: decide whether the reported protein stability index for SLARLQQLLFVIFLLLLLFTLGTN [Y17L] is at least 3.
Reply text: NO

Inquiry: Exam item: decide whether the reported protein stability index for SLARLQQILFVIFLLLYLFTLGTN [L8I] is at least 3.
Reply text: NO

Inquiry: Exam item: decide whether the reported protein stability index for SLARLQQLLFVIFLLLYLFTLGTT [N24T] is at least 3.
Reply text: NO

Inquiry: Exam item: decide whether the reported protein stability index for SKARLQQLLFVIFLLLYLFTLGTN [L2K] is at least 3.
Reply text: NO

Inquiry: Exam item: decide whether the reported protein stability index for SLARLQQLLFVIFLLLYLFLLGTN [T20L] is at least 3.
Reply text: NO

Inquiry: Exam item: decide whether the reported protein stability index for SLARLQQLLFVIFLLLYLFTTGTN [L21T] is at least 3.
Reply text: YES

Inquiry: Exam item: decide whether the reported protein stability index for CLARLQQLLFVIFLLLYLFTLGTN [S1C] is at least 3.
Reply text: NO

Inquiry: Exam item: decide whether the reported protein stability index for SLARLQQLLFVIGLLLYLFTLGTN [F13G] is at least 3.
Reply text: NO

Inquiry: Exam item: decide whether the reported protein stability index for SLARLQQLLFVIFGLLYLFTLGTN [L14G] is at least 3.
Reply text: NO

Inquiry: Exam item: decide whether the reported protein stability index for SLARLQQLLRVIFLLLYLFTLGTN [F10R] is at least 3.
Reply text: YES

Inquiry: Exam item: decide whether the reported protein stability index for SLALLQQLLFVIFLLLYLFTLGTN [R4L] is at least 3.
Reply text: YES

Inquiry: Exam item: decide whether the reported protein stability index for SLAPLQQLLFVIFLLLYLFTLGTN [R4P] is at least 3.
Reply text: NO

Inquiry: Exam item: decide whether the reported protein stability index for SLARLQTLLFVIFLLLYLFTLGTN [Q7T] is at least 3.
Reply text: NO

Inquiry: Exam item: decide whether the reported protein stability index for SLAMLQQLLFVIFLLLYLFTLGTN [R4M] is at least 3.
Reply text: YES

Inquiry: Exam item: decide whether the reported protein stability index for SLAYLQQLLFVIFLLLYLFTLGTN [R4Y] is at least 3.
Reply text: NO

Inquiry: Exam item: decide whether the reported protein stability index for SLARLQQLLFVIFLLLVLFTLGTN [Y17V] is at least 3.
Reply text: NO

Inquiry: Exam item: decide whether the reported protein stability index for SLARLQQLLFVPFLLLYLFTLGTN [I12P] is at least 3.
Reply text: YES

Inquiry: Exam item: decide whether the reported protein stability index for ALARLQQLLFVIFLLLYLFTLGTN [S1A] is at least 3.
Reply text: NO

Inquiry: Exam item: decide whether the reported protein stability index for SLARLQGLLFVIFLLLYLFTLGTN [Q7G] is at least 3.
Reply text: YES

Inquiry: Exam item: decide whether the reported protein stability index for SLWRLQQLLFVIFLLLYLFTLGTN [A3W] is at least 3.
Reply text: NO

Inquiry: Exam item: decide whether the reported protein stability index for SLARLQQLLFVIFLLLILFTLGTN [Y17I] is at least 3.
Reply text: YES

Inquiry: Exam item: decide whether the reported protein stability index for SLARLQQLLFVIFLLLYLFTLGTI [N24I] is at least 3.
Reply text: NO

Inquiry: Exam item: decide whether the reported protein stability index for SLARLQQLLFVIFLLLYLFTLNTN [G22N] is at least 3.
Reply text: YES

Inquiry: Exam item: decide whether the reported protein stability index for SLARLQQLLFVIFLLLYLFILGTN [T20I] is at least 3.
Reply text: NO

Inquiry: Exam item: decide whether the reported protein stability index for SLARFQQLLFVIFLLLYLFTLGTN [L5F] is at least 3.
Reply text: NO

Inquiry: Exam item: decide whether the reported protein stability index for SLLRLQQLLFVIFLLLYLFTLGTN [A3L] is at least 3.
Reply text: NO

Inquiry: Exam item: decide whether the reported protein stability index for SLARWQQLLFVIFLLLYLFTLGTN [L5W] is at least 3.
Reply text: YES

Inquiry: Exam item: decide whether the reported protein stability index for SLKRLQQLLFVIFLLLYLFTLGTN [A3K] is at least 3.
Reply text: NO

Inquiry: Exam item: decide whether the reported protein stability index for SLARLQQLIFVIFLLLYLFTLGTN [L9I] is at least 3.
Reply text: NO

Inquiry: Exam item: decide whether the reported protein stability index for SLARLQQLLFVIKLLLYLFTLGTN [F13K] is at least 3.
Reply text: NO

Inquiry: Exam item: decide whether the reported protein stability index for SLARLDQLLFVIFLLLYLFTLGTN [Q6D] is at least 3.
Reply text: YES

Inquiry: Exam item: decide whether the reported protein stability index for SLAKLQQLLFVIFLLLYLFTLGTN [R4K] is at least 3.
Reply text: NO

Inquiry: Exam item: decide whether the reported protein stability index for SLARLQQLLFVIFLLLYLLTLGTN [F19L] is at least 3.
Reply text: NO

Inquiry: Exam item: decide whether the reported protein stability index for SLARLQQLLFVIFLLLYLFTLWTN [G22W] is at least 3.
Reply text: NO

Inquiry: Exam item: decide whether the reported protein stability index for SLARLQQYLFVIFLLLYLFTLGTN [L8Y] is at least 3.
Reply text: YES

Inquiry: Exam item: decide whether the reported protein stability index for SFARLQQLLFVIFLLLYLFTLGTN [L2F] is at least 3.
Reply text: NO

Inquiry: Exam item: decide whether the reported protein stability index for SLARLNQLLFVIFLLLYLFTLGTN [Q6N] is at least 3.
Reply text: NO

Inquiry: Exam item: decide whether the reported protein stability index for DLARLQQLLFVIFLLLYLFTLGTN [S1D] is at least 3.
Reply text: NO

Inquiry: Exam item: decide whether the reported protein stability index for SLARLGQLLFVIFLLLYLFTLGTN [Q6G] is at least 3.
Reply text: NO

Inquiry: Exam item: decide whether the reported protein stability index for SLARLQQLLFVIFLLLYLFTLGTW [N24W] is at least 3.
Reply text: NO

Inquiry: Exam item: decide whether the reported protein stability index for SGARLQQLLFVIFLLLYLFTLGTN [L2G] is at least 3.
Reply text: NO

Inquiry: Exam item: decide whether the reported protein stability index for SLARLQQLLQVIFLLLYLFTLGTN [F10Q] is at least 3.
Reply text: NO

Inquiry: Exam item: decide whether the reported protein stability index for SLARLKQLLFVIFLLLYLFTLGTN [Q6K] is at least 3.
Reply text: YES

Inquiry: Exam item: decide whether the reported protein stability index for SLARLQPLLFVIFLLLYLFTLGTN [Q7P] is at least 3.
Reply text: NO

Inquiry: Exam item: decide whether the reported protein stability index for SLARLQQLLFVICLLLYLFTLGTN [F13C] is at least 3.
Reply text: YES

Inquiry: Exam item: decide whether the reported protein stability index for SLARLAQLLFVIFLLLYLFTLGTN [Q6A] is at least 3.
Reply text: NO

Inquiry: Exam item: decide whether the reported protein stability index for SLARLQALLFVIFLLLYLFTLGTN [Q7A] is at least 3.
Reply text: NO

Inquiry: Exam item: decide whether the reported protein stability index for SLARKQQLLFVIFLLLYLFTLGTN [L5K] is at least 3.
Reply text: NO

Inquiry: Exam item: decide whether the reported protein stability index for SLARLQQLLFVIFFLLYLFTLGTN [L14F] is at least 3.
Reply text: NO

Inquiry: Exam item: decide whether the reported protein stability index for SLARLQLLLFVIFLLLYLFTLGTN [Q7L] is at least 3.
Reply text: NO

Inquiry: Exam item: decide whether the reported protein stability index for SLARLQQTLFVIFLLLYLFTLGTN [L8T] is at least 3.
Reply text: NO

Inquiry: Exam item: decide whether the reported protein stability index for SLARLQQLLFFIFLLLYLFTLGTN [V11F] is at least 3.
Reply text: NO

Inquiry: Exam item: decide whether the reported protein stability index for SLARLQQLLFVIFLLLWLFTLGTN [Y17W] is at least 3.
Reply text: NO

Inquiry: Exam item: decide whether the reported protein stability index for FLARLQQLLFVIFLLLYLFTLGTN [S1F] is at least 3.
Reply text: NO

Inquiry: Exam item: decide whether the reported protein stability index for SLARLQQLLFVIYLLLYLFTLGTN [F13Y] is at least 3.
Reply text: YES

Inquiry: Exam item: decide whether the reported protein stability index for SLARLQRLLFVIFLLLYLFTLGTN [Q7R] is at least 3.
Reply text: NO

Inquiry: Exam item: decide whether the reported protein stability index for SLADLQQLLFVIFLLLYLFTLGTN [R4D] is at least 3.
Reply text: NO

Inquiry: Exam item: decide whether the reported protein stability index for SLARLYQLLFVIFLLLYLFTLGTN [Q6Y] is at least 3.
Reply text: NO

Inquiry: Exam item: decide whether the reported protein stability index for SLARLQQLLFYIFLLLYLFTLGTN [V11Y] is at least 3.
Reply text: NO

Inquiry: Exam item: decide whether the reported protein stability index for SLARLCQLLFVIFLLLYLFTLGTN [Q6C] is at least 3.
Reply text: NO

Inquiry: Exam item: decide whether the reported protein stability index for SLARLQQLLFVIFLLLYLFTNGTN [L21N] is at least 3.
Reply text: YES

Inquiry: Exam item: decide whether the reported protein stability index for SLARLQQLLFVIFLLIYLFTLGTN [L16I] is at least 3.
Reply text: NO

Inquiry: Exam item: decide whether the reported protein stability index for SLAILQQLLFVIFLLLYLFTLGTN [R4I] is at least 3.
Reply text: YES

Inquiry: Exam item: decide whether the reported protein stability index for SLARLSQLLFVIFLLLYLFTLGTN [Q6S] is at least 3.
Reply text: NO

Inquiry: Exam item: decide whether the reported protein stability index for SLARLQQPLFVIFLLLYLFTLGTN [L8P] is at least 3.
Reply text: YES

Inquiry: Exam item: decide whether the reported protein stability index for SLARLQQLLFAIFLLLYLFTLGTN [V11A] is at least 3.
Reply text: NO

Inquiry: Exam item: decide whether the reported protein stability index for SLARLQQLLFVIFLLLYLFTLGHN [T23H] is at least 3.
Reply text: NO

Inquiry: Exam item: decide whether the reported protein stability index for SLARLWQLLFVIFLLLYLFTLGTN [Q6W] is at least 3.
Reply text: NO

Inquiry: Exam item: decide whether the reported protein stability index for SLARLQQLWFVIFLLLYLFTLGTN [L9W] is at least 3.
Reply text: NO

Inquiry: Exam item: decide whether the reported protein stability index for SLARLQQLCFVIFLLLYLFTLGTN [L9C] is at least 3.
Reply text: YES

Inquiry: Exam item: decide whether the reported protein stability index for SLARLQWLLFVIFLLLYLFTLGTN [Q7W] is at least 3.
Reply text: NO

Inquiry: Exam item: decide whether the reported protein stability index for SLMRLQQLLFVIFLLLYLFTLGTN [A3M] is at least 3.
Reply text: NO

Inquiry: Exam item: decide whether the reported protein stability index for SEARLQQLLFVIFLLLYLFTLGTN [L2E] is at least 3.
Reply text: NO

Inquiry: Exam item: decide whether the reported protein stability index for SDARLQQLLFVIFLLLYLFTLGTN [L2D] is at least 3.
Reply text: NO

Inquiry: Exam item: decide whether the reported protein stability index for SLARLQQLLFVIFLLLCLFTLGTN [Y17C] is at least 3.
Reply text: NO

Inquiry: Exam item: decide whether the reported protein stability index for SLARLQQLLFVIFLLSYLFTLGTN [L16S] is at least 3.
Reply text: YES

Inquiry: Exam item: decide whether the reported protein stability index for SLARLQQLLFVIFLLLYIFTLGTN [L18I] is at least 3.
Reply text: NO

Inquiry: Exam item: decide whether the reported protein stability index for SLARLQQLLFVIFLLLYLMTLGTN [F19M] is at least 3.
Reply text: NO
